Here's a batch of compounds along with measured GI50 for HCT-15.
I only need the number, in µM, no unit after it.

Below: 3 compounds and their reported GI50.
COMPOUND	SYSTEM	GI50 (µM)
N#Cc1cc([N+](=O)[O-])ccc1NC(=O)/C(=N/N)C(C(=O)c1ccc(Cl)c(Cl)c1)C1OC(=O)c2ccccc21 (configuration not stated)	HCT-15	42.2
CC(=O)O[C@H]1/C(=C/c2ccncc2)C[C@H]2[C@@H]3CC=C4C[C@@H](N5CCCC5)CC[C@]4(C)[C@H]3CC[C@]12C	HCT-15	10.1
CCOP(=O)(C=C=C1CCC2[C@@H]3CCc4cc(OC)ccc4C3CC[C@]12C)OCC (some centres not stated)	HCT-15	10.9

Query block: Give the measured GI50 for Cc1ccc(NC(=O)/C(=N/NC(=O)C[N+](C)(C)C)c2nc3ccccc3nc2O)cc1
Result block: 81.1

Query block: Give the measured GI50 for O=c1oc2ccccc2cc1-c1csc(Nc2ccc(F)cc2)n1
Result block: 2.86

Query block: Give the measured GI50 for CC[n+]1c(/C=C/c2cc(C(=O)OC)n3c2sc2ccccc23)sc2ccccc21
Result block: 18.8

Query block: Give the measured GI50 for Cc1cc2c(cc1C)[n+]([O-])c(N1CCN(c3ccc([N+](=O)[O-])cc3)CC1)c(C#N)[n+]2[O-]
Result block: 85.3

###

# key: entry, value: GI50
# Tested on: A498
# ASSAY_TEXT: NCI tumour cell line growth inhibition, 48 h
Activity calls are given as the source filed them. Rule as the data show it: active = GI50 up to about 1.1 µM and inactive = higher.

Below: 3 molecules and their reported GI50.
> print(dat)
                                   molecule  system          test.result
1  CN(O)C(=O)CCCC(=O)NCC(C)(C)CNC(=O)CCCC(=O)N(C)O    A498  > 100 µM (inactive)
2  COCN1C(=O)[C@@H]2CCCN2C(=O)c2cc([N+](=O)[O-])ccc21    A498     43 µM (inactive)
3  O=[N+]([O-])c1ccc(Cl)c(C2SCc3nc4ccccc4n32)c1 (stereo not given)    A498   32.3 µM (inactive)

Query block: Give the measured GI50 for CO[C@@]12[C@H](COC(N)=O)C3=C(C(=O)C(C)=C(N)C3=O)N1C[C@H]1[C@@H]2N1C (stereo not given in full)
Result block: 6.31 µM (inactive)

Query block: Give the measured GI50 for C=CCn1c(=O)ccn(COCCO)c1=O
Result block: > 100 µM (inactive)

Query block: Give the measured GI50 for CCCCc1ccc(Nc2nc(Cl)c3ccn(C4CC(Oc5ccc(C)cc5)C(COc5ccc(C)cc5)O4)c3n2)cc1 (stereo not given)
Result block: > 46.5 µM (inactive)

Query block: Give the measured GI50 for O=C1NC(=O)C2C1C1C=C3c4ccccc4N(c4ccccc4)C32[C@H]2C(=O)NC(=O)[C@@H]12 (stereo not given in full)
Result block: > 100 µM (inactive)

Query block: Give the measured GI50 for CC(=O)NS(=O)(=O)c1ccc(NC(=O)c2c3ccccc3nc3ccccc23)cc1
Result block: > 100 µM (inactive)

Query block: Give the measured GI50 for COc1c(Cl)cc(Cl)cc1S(=O)O
Result block: > 100 µM (inactive)

Query block: Give the measured GI50 for Cc1cc(SCC(=O)c2ccc(Br)cc2)cc(C)[o+]1
Result block: 27.3 µM (inactive)

###

# Tested on: T47D
# ASSAY_TEXT: NCI tumour cell line growth inhibition, 48 h
The source made the active and inactive calls. Cut-off read from the data, not from the text of the source: active = GI50 up to about 1.1 µM and inactive = higher.
Would you mind answering with one of these outcomes? active, inactive

> print(dat)
                                   compound     group
1  Cc1cc2nnn(C3CCCCO3)c2cc1C (stereo unspecified)  inactive
2  Cc1cc2c(cc1C)[n+]([O-])c(N1CCN(c3ccc([N+](=O)[O-])cc3)CC1)c(C#N)[n+]2[O-]  inactive
3        c1ccc2sc(C3(N4CCCCC4)CCCCCC3)cc2c1  inactive
4          O/N=C1\C/C(=N\O)c2c(Br)sc(Br)c21  inactive
5  COCOC1/C=C/CCCC#C[C@H](C)C(=O)CC1 (stereo partly specified)  inactive
6                  N/C(CSCCSC/C(N)=N/O)=N\O  inactive

Query block: Answer briefly: the call reported for CCOP(=O)(CN1CCNCCNCC1)OCC in this assay.
Result block: inactive

Query block: Answer briefly: the call reported for CCCC(=O)n1[nH]c(=O)n(C(C)(C)C)c1=O in this assay.
Result block: inactive

###

# key: entry, value: GI50
# Test system: SNB-75
# ASSAY_TEXT: NCI tumour cell line growth inhibition, 48 h
Active and inactive are the calls of the source. Rule as the data show it: active = GI50 up to about 1.1 µM and inactive = higher.

Query block: Give the measured GI50 for CCN1CCC(CNC(=O)c2ccc(N)cc2)N1CC (stereo unspecified)
Result block: > 100 µM (inactive)

Query block: Give the measured GI50 for COc1cc(-c2[nH]ccc2Cl)oc1C1=C2N=C3C=C2C(C(C)C)C1CCCCCCCC3 (stereo unspecified)
Result block: 1.12 µM (inactive)

Query block: Give the measured GI50 for N#Cc1c(N)nc2c(c1-c1ccc(Br)cc1)CSc1ccccc1-2
Result block: 31.4 µM (inactive)

###

# System: EKVX
# ASSAY_TEXT: NCI tumour cell line growth inhibition, 48 h
Active and inactive are the calls of the source. Rule as the data show it: active = GI50 up to about 1.1 µM and inactive = higher.
Would you mind answering with one of these outcomes? active, inactive

> print(dat)
                                   compound  system     group
1  C=C1CC(OC)(C(O)C(=O)N[C@H]2OCO[C@H]3C2O[C@H](C[C@@H](COC)OC)C(C)(C)C3OC)O[C@H](C)[C@@H]1C (stereo not given in full)    EKVX    active
2  COc1cc(/C=C2\N=C(c3ccccc3)N(c3ccc(C(=O)c4ccccc4)cc3N3C(=O)/C(=C/c4ccc(O)c(OC)c4)N=C3c3ccccc3)C2=O)ccc1O    EKVX  inactive
3  O=C1OC(c2ccccc2)N/C1=C\c1ccc2c(c1)OCO2 (stereo not given)    EKVX  inactive
4  CC(C)=CC(=O)Cc1nc2ccc([N+](=O)[O-])cc2[nH]c1=O    EKVX  inactive
5  CN(C)c1cccc2c(S(=O)(=O)NCCN)cccc12 [DANSYL ETHYLENEDIAMINE]    EKVX  inactive

Query block: Answer briefly: the call reported for N#CC12C(=O)N=C(N)C1(C#N)C(c1ccco1)NC1=C2CCCC1 (stereo not given) in this assay.
Result block: inactive

Query block: Answer briefly: the call reported for CN(C)CCn1cnc2ncccc2c1=O in this assay.
Result block: inactive

Query block: Answer briefly: the call reported for CC(=O)OCC1OC(Sc2ccccn2)C=CC1OC(C)=O (stereo not given) in this assay.
Result block: inactive

Query block: Answer briefly: the call reported for CCCCCC1=CC(=O)C1(Cl)Cl in this assay.
Result block: inactive

Query block: Answer briefly: the call reported for O=C(/C=C/c1ccccc1)c1cc(C(=O)/C=C/c2ccccc2)c(O)cc1O in this assay.
Result block: inactive

###

# Tested on: SK-MEL-5
# ASSAY_TEXT: NCI tumour cell line growth inhibition, 48 h
Active and inactive are the calls of the source. Cut-off read from the data, not from the text of the source: active = GI50 up to about 1.1 µM and inactive = higher.
Would you mind answering with one of these outcomes? True (active), False (inactive)

> print(dat)
                                   compound  group
1     CN(C)CCNC(=O)Cc1ccccc1Nc1c(Cl)cccc1Cl  False
2  CCc1c(OC(C)=O)c2c(NC3OC(COC(C)=O)C(OC(C)=O)C(OC(C)=O)C3OC(C)=O)nc(SC)nc2oc1=O (stereo not drawn)  False
3  CCOC(=O)c1cc2c([N+](=O)[O-])c(NC(C)=O)ccc2s1  False

Query block: Answer briefly: the call reported for Cc1cc(N(CCC#N)CCC#N)ccc1C(/N=N/c1ccccc1)=N\NC(=O)c1cc(Cl)ccc1O in this assay.
Result block: False

Query block: Answer briefly: the call reported for COc1cc(N(C)C)ccc1C=c1c2ccccc2n2c1cc(-c1ccccc1)[n+]2C in this assay.
Result block: True

Query block: Answer briefly: the call reported for c1cc(C2N3CCCN2CC3)ccn1 (stereo not drawn) in this assay.
Result block: False

Query block: Answer briefly: the call reported for Cc1cc2[nH]c3c(C#N)c(-c4ccccc4)c(/C=N/c4cccc(C(F)(F)F)c4)c(=O)n3c2cc1C in this assay.
Result block: False

###

# System: DU-145
# ASSAY_TEXT: NCI tumour cell line growth inhibition, 48 h
The source made the active and inactive calls. No stated cut-off is given here; in the data, active = GI50 up to about 1.1 µM and inactive = higher.
Would you mind answering with one of these outcomes? class 1 (active), class 0 (inactive)

> print(dat)
                                   molecule    group
1  COC(=O)c1cc(OC)c(OC)c(OC)c1-c1cc2c(cc1C=O)OCO2  class 0
2             CNC(=S)N/N=C(\C)c1cc(OC)ccc1O  class 0
3  Cc1cn(CCOCCOC(=O)NC(CCCNC(=N)N)C(=O)O)c(=O)[nH]c1=O (stereo unspecified)  class 0
4  COc1cc(C[C@H]2c3cc(OC)c(OC)cc3CCN2C)c(Oc2cc3c(cc2OC)-c2c(OC)c(OC)cc4c2[C@H](C3)N(C)CC4)cc1OC [THALICARPINE]  class 0

Query block: Answer briefly: the call reported for N#CC12C(=O)N=C(N)C1(C#N)C(c1ccco1)NC1=C2CCCC1 (stereo unspecified) in this assay.
Result block: class 0

Query block: Answer briefly: the call reported for c1ccc2sc(C3(N4CCCCC4)CCCCCC3)cc2c1 in this assay.
Result block: class 0

Query block: Answer briefly: the call reported for CCOC(=O)NC(=S)NC(C)c1ccccc1 (stereo unspecified) in this assay.
Result block: class 0

Query block: Answer briefly: the call reported for CC(=O)NS(=O)(=O)c1ccc(NC(=O)c2c3ccccc3nc3ccccc23)cc1 in this assay.
Result block: class 0

Query block: Answer briefly: the call reported for CC(C(N)=O)N(C)C(=O)c1cc2ccccc2[n+](Cc2ccccc2)c1 (stereo unspecified) in this assay.
Result block: class 0

Query block: Answer briefly: the call reported for COC(=O)c1c(O)ccc2c1c1c(n2Cc2ccccc2)C(=O)c2ccccc2C1 in this assay.
Result block: class 0

Query block: Answer briefly: the call reported for C=CC1(O)CCCC=C1COCc1ccccc1 (stereo unspecified) in this assay.
Result block: class 0

Query block: Answer briefly: the call reported for N#Cc1c(N)nc2c(c1-c1ccc(Br)cc1)CSc1ccccc1-2 in this assay.
Result block: class 0

Query block: Answer briefly: the call reported for O=C(COc1ccc(Cl)c(Cl)c1)Nc1ccc[n+](Cc2ccc(S(=O)(=O)F)c(Cl)c2)c1 in this assay.
Result block: class 0
